Reference source: patent US11679107B2

System: Panc 05.04 cells (SF3b K700E mutant)
assay-summary: Cell proliferation and viability, CellTiter-Glo, 72 hours
Format: cell-based
condition-set: PANC0504.1 cells, 72 h; −100% cidal, 0% static, 100% maximal growth
# Lookup of reported CTGlo-ATS Mean MinResponse % 72 h PANC0504.1 keyed by entry
test-readout: CTGlo-ATS Mean MinResponse % 72 h PANC0504.1 (%)

[[record]]
smiles = "C/C(=C\\c1cc(F)cc(N2CCOCC2)c1)[C@H]1OC(=O)C[C@@H](O)CC[C@@](C)(O)[C@@H](OC(=O)N2CCC(N3CCCCC3)CC2)/C=C/[C@@H]1C"
numeric_value = "−96.440"

[[record]]
smiles = "C/C(=C\\c1cc(F)c2cnn(CC(=O)N3CCOCC3)c2c1)[C@H]1OC(=O)C[C@H](O)CC[C@H](C)[C@@H](OC(=O)N2CCN(C)CC2)/C=C/[C@@H]1C"
numeric_value = "−93.452"

[[record]]
smiles = "C/C(=C\\c1cc(F)cc(N2CCC(O)CC2)c1)[C@H]1OC(=O)C[C@H](O)CC[C@H](C)[C@@H](OC(=O)N2CCN(C)CC2)/C=C/[C@@H]1C"
numeric_value = "−75.997"

[[record]]
smiles = "C/C(=C\\c1cccc(N2CCNCC2)c1)[C@H]1OC(=O)C[C@H](O)CC[C@H](C)[C@@H](OC(=O)N2CCN(C)CC2)/C=C/[C@@H]1C"
numeric_value = "−79.550"

[[record]]
smiles = "C/C(=C\\c1cc(F)cc(N2CCCC2=O)c1)[C@H]1OC(=O)C[C@H](O)CC[C@H](C)[C@@H](OC(=O)N2CCN(C)CC2)/C=C/[C@@H]1C"
numeric_value = "−86.319"


====

Entries annotated with measured GI50
Test system: Panc 05.04 cells (SF3b K700E mutant)
assay-summary: Cell proliferation and viability, CellTiter-Glo, 72 hours
Format: cell-based
condition-set: Panc 05.04, 72 h, read-out: CTGlo-ATS GMean GI50 (nM) 72 h PANC0504.1, 72 h; PANC0504.1; geometric mean
test-readout: GI50 (nM)

[[record]]
compound = "C/C(=C\\c1cc(F)cc(S(=O)(=O)N2CCCC2)c1)[C@H]1OC(=O)C[C@H](O)CC[C@H](C)[C@@H](OC(=O)N2CCN(C)CC2)/C=C/[C@@H]1C"
test_readout = "GI50"
numeric_value = 3.53

[[record]]
compound = "C/C(=C\\c1cc(F)cc(N2CCOCC2)c1)[C@H]1OC(=O)C[C@H](O)CC[C@H](C)[C@@H](OC(=O)NCCCN2CCOCC2)/C=C/[C@@H]1C"
test_readout = "GI50"
numeric_value = 120

[[record]]
compound = "CC(=O)N1CCC(n2nnc3c(F)cc(/C=C(\\C)[C@H]4OC(=O)C[C@H](O)CC[C@H](C)[C@@H](OC(=O)N5CCNCC5)/C=C/[C@@H]4C)cc32)CC1"
test_readout = "GI50"
numeric_value = 12.9

[[record]]
compound = "C/C(=C\\c1cccc(S(=O)(=O)C2CC2)c1)[C@H]1OC(=O)C[C@H](O)CC[C@H](C)[C@@H](OC(=O)N2CCN(C)CC2)/C=C/[C@@H]1C"
test_readout = "GI50"
numeric_value = 20

[[record]]
compound = "C/C(=C\\c1cccc(COC(=O)N2CCC(O)CC2)c1)[C@H]1OC(=O)C[C@H](O)CC[C@H](C)[C@@H](OC(=O)N2CCN(C)CC2)/C=C/[C@@H]1C"
test_readout = "GI50"
numeric_value = 32.3

[[record]]
compound = "C/C(=C\\c1cc(F)cc(N2CCN(C(=O)Cn3cccn3)CC2)c1)[C@H]1OC(=O)C[C@H](O)CC[C@H](C)[C@@H](OC(=O)N2CCNCC2)/C=C/[C@@H]1C"
test_readout = "GI50"
numeric_value = 1.94

[[record]]
compound = "C/C(=C\\c1cccc(COC(=O)N2CC[C@@H](O)C2)c1)[C@H]1OC(=O)C[C@H](O)CC[C@H](C)[C@@H](OC(=O)N2CCN(C)CC2)/C=C/[C@@H]1C"
test_readout = "GI50"
numeric_value = 29

[[record]]
compound = "C/C(=C\\c1cc(F)cc(N2CCOCC2)c1)[C@H]1OC(=O)C[C@H](O)CC[C@H](C)[C@@H](OC(=O)N2CCC(N3CCCCC3)CC2)/C=C/[C@@H]1C"
test_readout = "GI50"
numeric_value = 29.3

[[record]]
compound = "C/C(=C\\c1cccc(S(=O)(=O)N2CCCC2)c1)[C@H]1OC(=O)C[C@H](O)CC[C@H](C)[C@@H](OC(=O)N2CCN(C)CC2)/C=C/[C@@H]1C"
test_readout = "GI50"
numeric_value = 3.29

[[record]]
compound = "C/C(=C\\c1cc(F)cc(N2CCOCC2)c1)[C@H]1OC(=O)C[C@H](O)CC[C@H](C)[C@@H](OC(=O)N(C)CCC#N)/C=C/[C@@H]1C"
test_readout = "GI50"
numeric_value = 113

[[record]]
compound = "C/C(=C\\c1cccc(COC(=O)N2CCOCC2)c1)[C@H]1OC(=O)C[C@H](O)CC[C@H](C)[C@@H](OC(=O)N2CCN(C)CC2)/C=C/[C@@H]1C"
test_readout = "GI50"
numeric_value = 71.5

[[record]]
compound = "C/C(=C\\c1cccc(COC(=O)N(C)C)c1)[C@H]1OC(=O)C[C@H](O)CC[C@H](C)[C@@H](OC(=O)N2CCN(C)CC2)/C=C/[C@@H]1C"
test_readout = "GI50"
numeric_value = 28.7

[[record]]
compound = "CCNS(=O)(=O)c1cccc(/C=C(\\C)[C@H]2OC(=O)CC(O)CCC(C)[C@@H](OC(=O)N3CCN(C)CC3)/C=C/[C@@H]2C)c1 (stereo in doubt)"
test_readout = "GI50"
numeric_value = 27.8


====

System: NCI-H1568 cells (high MCL1)
assay-summary: Cell proliferation and viability, CellTiter-Glo, 72 hours
Type: cell-based
condition-set: NCI-H1568, read-out: CTGlo-ATS GMean GI50 (nM) 72 h NCIH1568.1; 72 h; NCIH1568.1; geometric mean
test-readout: GI50 (nM)

[[record]]
smiles = "C/C(=C\\c1cccc(COC(=O)N2CCC3(COC3)C2)c1)[C@H]1OC(=O)C[C@H](O)CC[C@H](C)[C@@H](OC(=O)N2CCN(C)CC2)/C=C/[C@@H]1C"
result_unit = "nM"
numeric_value = 67.6

[[record]]
smiles = "C/C(=C\\c1cncc(S(=O)(=O)N2CCCC2)c1)[C@H]1OC(=O)C[C@H](O)CC[C@H](C)[C@@H](OC(=O)N2CCN(C)CC2)/C=C/[C@@H]1C"
result_unit = "nM"
numeric_value = 85.9

[[record]]
smiles = "C/C(=C\\c1cc(F)cc(N2CC[C@H](NS(C)(=O)=O)C2)c1)[C@H]1OC(=O)C[C@H](O)CC[C@H](C)[C@@H](OC(=O)N2CCN(C)CC2)/C=C/[C@@H]1C"
result_unit = "nM"
numeric_value = 13.8


====

assayed-target: SF3b complexes (Homo sapiens, UniProt O75533+Q7RTV0)
Construct: endogenous in cells; host or cells: Nuclear extracts; A HeLa S3 extract preparation is described for the in vitro splicing assay
assay-summary: Scintillation proximity assay (SPA) with [3H]-labelled pladienolide probe
Type: binding
condition-set: SF3B1 (WT); geometric mean; read-out: SPA-ATS GMean IC50 (nM) SF3B1 (WT)
test-readout: IC50 (nM)

[[record]]
compound = "C/C(=C\\c1cc(F)cc(N2CCO[C@H](CO)C2)c1)[C@H]1OC(=O)C[C@H](O)CC[C@H](C)[C@@H](OC(=O)N2CCN(C)CC2)/C=C/[C@@H]1C [Compound 76]"
test_readout = "IC50"
result_unit = "nM"
numeric_value = 4.2

[[record]]
compound = "C/C(=C\\c1cc(F)cc(N2CCN(CCO)CC2)c1)[C@H]1OC(=O)C[C@H](O)CC[C@H](C)[C@@H](OC(=O)N2CCC(N3CCCCC3)CC2)/C=C/[C@@H]1C [Compound 13]"
test_readout = "IC50"
result_unit = "nM"
numeric_value = 7.43

[[record]]
compound = "C/C(=C\\c1ccc2nccn2c1)[C@H]1OC(=O)C[C@H](O)CC[C@H](C)[C@@H](OC(=O)N2CCN(C)CC2)/C=C/[C@@H]1C [Compound 88]"
test_readout = "IC50"
result_unit = "nM"
numeric_value = 1.02

[[record]]
compound = "C/C(=C\\c1cc(F)cc(N2CCN(C(=O)Cn3cccn3)CC2)c1)[C@H]1OC(=O)C[C@H](O)CC[C@H](C)[C@@H](OC(=O)NCc2ccncc2)/C=C/[C@@H]1C [Compound 221]"
test_readout = "IC50"
result_unit = "nM"
numeric_value = 9.33

[[record]]
compound = "C/C(=C\\c1cc(F)c2nnn([C@H]3CC[C@H](O)CC3)c2c1)[C@H]1OC(=O)C[C@H](O)CC[C@H](C)[C@@H](OC(=O)N2CCN(C)CC2)/C=C/[C@@H]1C [Compound 147]"
test_readout = "IC50"
result_unit = "nM"
numeric_value = 7.3

